Quick list: recombinant barcode read abundance (log10) per entry.
Assay: recombinant barcode read abundance after kanamycin selection (control-corrected) (log10(CPM+1)); higher = more efficient recombination; sequences stand for … in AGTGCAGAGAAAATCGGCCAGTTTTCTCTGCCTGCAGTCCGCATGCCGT…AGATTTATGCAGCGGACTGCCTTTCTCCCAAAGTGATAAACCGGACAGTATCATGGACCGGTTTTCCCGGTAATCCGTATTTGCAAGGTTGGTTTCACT; site = the 11-nt target
Answer field: number only, no words.

Example cases with answers are listed next.
1. CTCCATACTTGGGTTCTAACCTGTTGCCT (site CTCCATGCTAG); 0.23
2. TAGAAGACTTGGGTTCTAACCTGTTGCTA (site TAGAAGACTGA); 0.155
3. CCGAAGCCTTGGGTTCTAACCTGTTGCCT (site CCGCAGCCTAG); 0.256

Q: Can you share its recombinant barcode read abundance (log10)? I mean this sequence: TAGTACTCTTGGGTTCTAACCTGTTGCTT (site TAGTACTCTAA)
Ans: 1.14

Q: Next record, please: CGTAGACCTTGGGTTCTAACCTGTTGCTA (site CGTAGACCTTA)
Ans: 0.216

Q: Next record, please: AGTCAGCCTTGGGTTCTAACCTGTTGCCT (site AGTCAGCCTAG)
Ans: 0.749

Q: Next record, please: TCCCAGTCTTGGGTTCTAACCTGTTGCAT (site TCCCAGTCTAT)
Ans: 1.88

Q: Next record, please: CAGTATTCTTGGGTTCTAACCTGTTGCCT (site CAGTACTCTAG)
Ans: 0.116

Q: Next record, please: CTACTAGCTTGGGTTCTAACCTGTTGCAC (site CTACTAGCTTT)
Ans: 0.727

Q: Next record, please: CCAACCGCTTGGGTTCTAACCTGTTGCCT (site CCAACCGCTAG)
Ans: 0.423

###

Assay: recombinant barcode read abundance after kanamycin selection (control-corrected) (log10(CPM+1)); higher = more efficient recombination; sequences stand for … in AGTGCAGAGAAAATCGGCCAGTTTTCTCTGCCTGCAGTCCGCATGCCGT…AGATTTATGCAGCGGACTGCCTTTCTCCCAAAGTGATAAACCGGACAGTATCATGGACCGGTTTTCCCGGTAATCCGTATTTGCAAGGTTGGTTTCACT; site = the 11-nt target
value kind: recombinant barcode read abundance (log10)

Example cases with answers are listed next.
1) GACGCCTCTTGGGTTCTAACCTGTTGCCT (site GACGCCTCTAG); 0.47
2) ACATGGGCTTGGGTTCTAACCTGTTGCCG (site ACATGTGCTCT); 0.266
3) TCCCAGTCTTGGGTTCTAACCTGTTGCCT (site TCCCAGTCTAT); 0.594
4) CAGTTGGCTTGGGTTCTAACCTGTTGCCT (site CAGTTTGCTAG); 0.232
5) ATGCCTACTTGGGTTCTAACCTGTTGCCT (site ATGCCGACTAG); 0.0715
6) ATCGGAGCTTGGGTTCTAACCTGTTGCTG (site ATCGGAGCTCC); 0.67

Q: Can you share its recombinant barcode read abundance (log10)? I mean this sequence: TTCGGGCCTTGGGTTCTAACCTGTTGCCT (site GTCGGGCCTAG)
Ans: 0.0582

Q: Next record, please: ACACTGTCTTGGGTTCTAACCTGTTGCGG (site ACATTGTCTCC)
Ans: 0.429

Q: Next record, please: GGATACACTTGGGTTCTAACCTGTTGCCT (site GGATACACTAG)
Ans: 2.06

Q: Next record, please: GACGGATCTTGGGTTCTAACCTGTTGCCT (site GACGGATCTAG)
Ans: 0.212

Q: Next record, please: AATTGTCCTTGGGTTCTAACCTGTTGCCT (site AATTGTCCTAA)
Ans: 0.411

Q: Next record, please: CAAAGTCCTTGGGTTCTAACCTGTTGCTT (site CAAAGTCCTAC)
Ans: 0.174

Q: Next record, please: TGGGGCCCTTGGGTTCTAACCTGTTGCCG (site TGGGGCCCTCG)
Ans: 1.9

###

Experiment: recombinant barcode read abundance after kanamycin selection (control-corrected) (log10(CPM+1)); higher = more efficient recombination; sequences stand for … in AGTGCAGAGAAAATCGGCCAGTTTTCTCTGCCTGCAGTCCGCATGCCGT…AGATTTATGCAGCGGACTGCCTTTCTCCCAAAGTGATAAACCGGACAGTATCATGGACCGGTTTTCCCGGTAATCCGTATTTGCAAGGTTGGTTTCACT; site = the 11-nt target
Kindly return Satisfied if reported recombinant barcode read abundance (log10) is no lower than 0.2; return Not satisfied if it is lower.

1) CTTCGTACTTGGGTTCTAACCTGTTGCCA (site CTCCGTACTCG); Not satisfied
2) ACGGGGTCTTGGGTTCTAACCTGTTGCCT (site CCGGGGTCTAG); Satisfied

Q: Does the reported recombinant barcode read abundance (log10) for TAAGGTACTTGGGTTCTAACCTGTTGCTT (site TAACGTACTAA) fall at or above the 0.2 mark?
Ans: Not satisfied

Q: Next record, please: AAGTTTCCTTGGGTTCTAACCTGTTGCGT (site ACGTTTCCTAT)
Ans: Not satisfied

###

Test: recombinant UMI read abundance after kanamycin selection (control-corrected) (log10(CPM+1)); higher = more efficient recombination; extreme values may be limits of the assay; sequences stand for … in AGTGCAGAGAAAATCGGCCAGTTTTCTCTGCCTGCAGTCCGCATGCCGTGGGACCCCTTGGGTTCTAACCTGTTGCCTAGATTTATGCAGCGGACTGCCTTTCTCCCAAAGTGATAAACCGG…AGGTTGGTTTCACT; site = the 11-nt donor
value kind: recombinant UMI read abundance (log10)
Answer field: number only, no words.

1) ACCCTAGCATGGACCGGTTTTCCCGGTAATCCGTATTTGTT (site ACCCTAGCTAA); 0
2) GATTATCCATGGACCGGTTTTCCCGGTAATCCGTATTTGAT (site GATTATCCTAC); 0.0054
3) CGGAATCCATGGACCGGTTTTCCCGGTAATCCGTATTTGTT (site CGGAATACTGA); 0
4) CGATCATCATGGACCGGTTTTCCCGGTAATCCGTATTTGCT (site CGAGCATCTTG); 0
5) AGGAATACATGGACCGGTTTTCCCGGTAATCCGTATTTGGC (site AGGAATACTGC); 2.59

Q: Can you share its recombinant UMI read abundance (log10)? I mean this sequence: AGAAATTCATGGACCGGTTTTCCCGGTAATCCGTATTTGCG (site AGAAATTCTCG)
Ans: 1.94

Q: Next record, please: AATAGTGCATGGACCGGTTTTCCCGGTAATCCGTATTTGGT (site ATTAGTGCTAC)
Ans: 0.53

Q: Next record, please: GTGAAGCCATGGACCGGTTTTCCCGGTAATCCGTATTTGGG (site GTGAAGCCTCC)
Ans: 0.00505

Q: Next record, please: AGCCGAGCATGGACCGGTTTTCCCGGTAATCCGTATTTGTT (site AGCCAAGCTAA)
Ans: 0.398

###

Experiment: recombinant UMI read abundance after kanamycin selection (control-corrected) (log10(CPM+1)); higher = more efficient recombination; extreme values may be limits of the assay; sequences stand for … in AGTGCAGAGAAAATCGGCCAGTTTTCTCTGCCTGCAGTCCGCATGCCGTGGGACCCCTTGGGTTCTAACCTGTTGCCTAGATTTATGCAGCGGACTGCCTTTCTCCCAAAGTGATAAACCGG…AGGTTGGTTTCACT; site = the 11-nt donor
Quick list: recombinant UMI read abundance (log10) per entry.

Example cases with answers are listed next.
1) GATTGAACATGGACCGGTTTTCCCGGTAATCCGTATTTGAC (site GATTGAACTGT); 0
2) TTTGCTGCATGGACCGGTTTTCCCGGTAATCCGTATTTGTG (site TTCGCTGCTCA); 0.00352
3) TCTATGACATGGACCGGTTTTCCCGGTAATCCGTATTTGTG (site TCTATGACTCA); 0.00894

Q: Can you share its recombinant UMI read abundance (log10)? I mean this sequence: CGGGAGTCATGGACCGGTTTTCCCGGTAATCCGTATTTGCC (site AGGGAGTCTGG)
Ans: 0

Q: Next record, please: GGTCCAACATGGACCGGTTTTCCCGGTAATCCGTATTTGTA (site GGTCAAACTTA)
Ans: 0.0208

Q: Next record, please: TTTGCGTCATGGACCGGTTTTCCCGGTAATCCGTATTTGCT (site TTTGCGACTAG)
Ans: 0

Q: Next record, please: CGGAGTCCATGGACCGGTTTTCCCGGTAATCCGTATTTGTT (site CGGATTCCTAA)
Ans: 0

Q: Next record, please: GGGCCACCATGGACCGGTTTTCCCGGTAATCCGTATTTGCA (site GGGACACCTTG)
Ans: 0

Q: Next record, please: CAAATAACATGGACCGGTTTTCCCGGTAATCCGTATTTGCA (site CAAATAACTTG)
Ans: 1.1
